# Test system: human Factor 11 mRNA
# PROCEDURE_DETAILS: Dose-dependent antisense inhibition of human Factor 11 in HepG2 cells, lipofectin 9.375-150 nM (Example 2)
# Format: cell-based
# RUN_CONDITIONS: 18.75 nM, ~16 h
Strand notation (5' to 3'): a small letter for the sugar, then the base; units joined by * are phosphorothioate-linked, units joined directly phosphodiester-linked; [ ] holds rarer units or linkages, { } end groups; capitals alone tell only the bases. e = 2'-O-(2-methoxyethyl) (MOE); [5mC] = 5-methylcytosine; d = 2'-deoxy (DNA)
percent inhibition of Factor 11 at 18.75 nM reference
EXPERIMENTAL_ENDPOINT: percent inhibition of Factor 11 at 18.75 nM (%)

412203 (antisense eA*eA*eT*eG*eT*d[5mC]*dT*dT*dT*dG*dT*dT*dG*d[5mC]*dA*eA*eG*e[5mC]*eG*e[5mC]) [compound 412203]
15
412212 (antisense e[5mC]*e[5mC]*eG*eG*eG*dA*dT*dG*dA*dT*dG*dA*dG*dT*dG*e[5mC]*eA*eG*eA*eT) [compound 412212]
45
413467 (antisense eG*eG*eT*e[5mC]*e[5mC]*dA*d[5mC]*dA*dT*dA*dA*dA*dT*dG*dT*e[5mC]*eT*eT*eT*eG) [compound 413467]
35
412206 (antisense e[5mC]*e[5mC]*eG*eT*eG*d[5mC]*dA*dT*d[5mC]*dT*dT*dT*d[5mC]*dT*dT*eG*eG*e[5mC]*eA*eT) [compound 412206]
44
413476 (antisense eT*eT*eG*eA*eG*dA*dT*dT*d[5mC]*dT*dT*dT*dG*dG*dG*e[5mC]*e[5mC]*eA*eT*eT) [compound 413476]
44
412224 (antisense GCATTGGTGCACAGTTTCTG; 5-10-5 MOE gapmer, further chemistry not given here) [compound 412224]
45
